Target: T1, human GPC3-His protein (human, UniProt P51654 25-559)
T1 construct: Bought protein; also called human GPC3 protein; not shown: His tag
Assay: ELISA, coated human GPC3, antibody 100 nM;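 further: antibodies bound to antigen-coated 96-well plates (1 µg/mL), 2 h at 37 °C, detected with HRP-labelled secondary antibody and TMB substrate, absorbance read at 450 nm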
quantity_kind: OD450 nm (OD450)
Write the answer as a number in OD450, unit excluded.

F1.153.1 human-murine chimeric antibody (antibody, human IgG1, kappa, V domains shown) VH: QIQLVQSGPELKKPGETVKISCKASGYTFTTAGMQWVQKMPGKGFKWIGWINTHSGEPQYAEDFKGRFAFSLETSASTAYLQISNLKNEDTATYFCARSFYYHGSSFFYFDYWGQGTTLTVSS VL: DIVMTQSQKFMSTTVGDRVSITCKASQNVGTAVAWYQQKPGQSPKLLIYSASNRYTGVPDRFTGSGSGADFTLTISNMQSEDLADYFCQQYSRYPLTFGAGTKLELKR ... 2.06

# context switch: different binder, same OD450 nm
Looking up F1.57.21 human-murine chimeric antibody (antibody, human IgG1, kappa, V domains shown) VH: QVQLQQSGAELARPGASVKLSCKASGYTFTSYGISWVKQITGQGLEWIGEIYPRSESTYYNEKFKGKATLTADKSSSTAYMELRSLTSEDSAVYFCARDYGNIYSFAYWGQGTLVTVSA VL: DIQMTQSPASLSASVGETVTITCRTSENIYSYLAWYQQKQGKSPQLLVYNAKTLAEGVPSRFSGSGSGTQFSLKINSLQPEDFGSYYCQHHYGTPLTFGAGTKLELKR , I see its OD450 nm listed as 2.35

Where do the numbers come from? From patent US20260116991A1.
